Assayed Target: plasma purified human AT-III (antithrombin III), in complex with full-length unfractionated heparin (AT-III/UFH)
A collection of proteins and their measured K0.5-mut/K0.5-wt (against Catalyst Biosciences WT FIXa)
Keep it simple and answer with nothing but the number.

Here are 2 proteins together with their reported answers.
FIXa-K247N/N249S/R318Y/R338E/E410N (protein) chain 1: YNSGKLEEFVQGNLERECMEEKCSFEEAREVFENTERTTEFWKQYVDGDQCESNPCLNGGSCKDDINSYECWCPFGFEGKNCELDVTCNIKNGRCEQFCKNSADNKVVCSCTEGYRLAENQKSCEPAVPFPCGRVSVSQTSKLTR chain 2: VVGGEDAKPGQFPWQVVLNGKVDAFCGGSIVNEKWIVTAAHCVETGVKITVVAGEHNIEETEHTEQNRSVIRIIPHHNYNAAINKYNHDIALLELDEPLVLNSYVTPICIADKEYTNIFLKFGSGYVSGWGRVFHKGYSALVLQYLRVPLVDRATCLESTKFTIYNNMFCAGFHEGGRDSCQGDSGGPHVTEVEGTSFLTGIISWGEECAMKGKYGIYTKVSRYVNWIKNKTKLT	78.3
FIXa-Y155F/K247N/N249S/R318Y/R338E/E410N (protein) chain 1: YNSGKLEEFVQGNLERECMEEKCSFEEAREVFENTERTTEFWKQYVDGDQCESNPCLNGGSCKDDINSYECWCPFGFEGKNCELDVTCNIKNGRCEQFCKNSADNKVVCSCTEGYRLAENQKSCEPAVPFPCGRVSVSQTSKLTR chain 2: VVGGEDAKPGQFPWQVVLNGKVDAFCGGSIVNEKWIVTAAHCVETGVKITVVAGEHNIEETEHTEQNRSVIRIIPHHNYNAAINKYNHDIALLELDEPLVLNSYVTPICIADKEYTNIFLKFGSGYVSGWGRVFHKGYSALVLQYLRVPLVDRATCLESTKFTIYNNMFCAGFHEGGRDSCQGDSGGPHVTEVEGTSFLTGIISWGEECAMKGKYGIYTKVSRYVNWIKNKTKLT	200

Would you kindly look at the next entry?
stdin: Quick one: K0.5-mut/K0.5-wt (against Catalyst Biosciences WT FIXa) of FIXa-K228N/K247N/N249S (protein) chain 1: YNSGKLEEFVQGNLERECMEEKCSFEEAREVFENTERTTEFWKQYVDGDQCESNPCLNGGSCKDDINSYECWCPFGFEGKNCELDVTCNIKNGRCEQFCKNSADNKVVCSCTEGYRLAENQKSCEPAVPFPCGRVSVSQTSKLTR chain 2: VVGGEDAKPGQFPWQVVLNGKVDAFCGGSIVNEKWIVTAAHCVETGVNITVVAGEHNIEETEHTEQNRSVIRIIPHHNYNAAINKYNHDIALLELDEPLVLNSYVTPICIADKEYTNIFLKFGSGYVSGWGRVFHKGRSALVLQYLRVPLVDRATCLRSTKFTIYNNMFCAGFHEGGRDSCQGDSGGPHVTEVEGTSFLTGIISWGEECAMKGKYGIYTKVSRYVNWIKEKTKLT ?
stdout: 4.4

Data credit: patent US20210230570
